# TEST_PROTOCOL: growth suppression of yeast trafficking mutant, preliminary HTS, modulators of trafficking downstream of Golgi apparatus project, 1536-format plate, OD 615 nm (AID 637)
# ASSAY_SETUP: yeast transport mutant growth, absorbance 615 nm, 18 h; stronger effect = higher value
Exercise: for every item that follows, state its recorded inhibition.
One number for each entry, in %.

// solved cases for inhibition follow
[[record]]
input_smiles = "Cc1cc(NC(=O)COc2ncnc3sc(C)c(C)c23)no1"
value_reported = 5.56

[[record]]
input_smiles = "CCOc1ccccc1C(=O)NCCCn1ccnc1"
value_reported = 2.7


Item under review: "CCn1c(=N)n(CC(=O)C23CC4CC(CC(C4)C2)C3)c2ccccc21" . Reported inhibition? 15.3

---

# TEST_PROTOCOL: SK-BR-3 cell growth inhibitors, pilot screen, 24 h, human (AID 572);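 further: compound exposure lasted between 18 and 24 h rather than exactly 24 h; 100% = carrier-treated control wells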
# ASSAY_SETUP: SK-BR-3 viability, CellTiter-Glo luminescence, at 10 µM, stronger effect = lower value
Exercise: for every item that follows, state its recorded viability.
One number for each entry, in %.

[[record]]
molecule = "Cc1cc(C(C)(C)C)c(O)c(C)c1CC1=NCCN1"
value_reported = 95


Lab note: each molecule below needs its viability filled in.
1. O=C(COc1ccccc1Cl)NCCCN1CCOCC1
2. CCn1c(CCC(=O)Nc2nc3c(s2)CCCC3)nc2cc(S(=O)(=O)N(C)C)ccc21
3. Cn1cc(C(=O)NC2CCCCCCC2)c(=O)c2cc(S(=O)(=O)N3CCCC3)ccc21
4. COc1ccccc1OCCCn1c(=O)oc2ccccc21

98
89.5
76.5
154

Lab note: each molecule below needs its viability filled in.
1. Cc1ccc(-c2nnc(N3CCN(C(=O)CN4C(=O)c5ccccc5C4=O)CC3)c3ccccc23)cc1
2. O=C(CSCc1ccc(F)cc1)NC1CCCC1
3. COc1ccc(N2C(=O)CC(N3CCCC4CCCCC43)C2=O)cc1 (centres undefined)
4. O=C(O)C1CCCN1C(=O)c1cccs1 (centres undefined)
5. Cc1nc2ncnn2c(N2CCC(C(=O)NCC3CCCO3)CC2)c1Cc1ccccc1 (centres undefined)
6. c1ccc(Cn2nnnc2C(c2cccs2)N2CCSCC2)cc1 (centres undefined)

1: 84; 2: 137; 3: 102; 4: 114; 5: 136; 6: 98

Lab note: each molecule below needs its viability filled in.
1. CCOC(=O)c1c(C)[nH]c(C)c1C(=O)COC(=O)CNC(=O)c1ccc(OCC)cc1
2. O=C(CSc1nc(O)cc(=O)n1-c1ccccc1)N1CCCCC1
3. Cc1nnc(Nc2ccccn2)c2ccccc12
4. CCn1c(SCC(=O)Nc2ccccc2F)nc2c(c1=O)SC(C)C2 (centres undefined)
5. CC(C)(C#N)Nn1cnnc1

1: 96; 2: 100; 3: 89; 4: 116; 5: 135

---

# TEST_PROTOCOL: reversal of MRP1-mediated doxorubicin resistance, pilot screen, H69AR cells, doxorubicin co-treatment (AID 601)
# ASSAY_SETUP: H69AR cells, CellTiter-Glo, 72 h; compound alone cytotoxicity; at 10 µM
MEASUREMENT_NAME: viability (%)
Give bare numbers, in %.

[[record]]
compound = "Nc1nnc(-c2cc3ccccc3oc2=O)s1"
measurement_name = "viability"
value_reported = 91.7

[[record]]
compound = "Cn1c(=O)[nH]c(=O)c2c1nc(N1CCNCC1)n2Cc1cccc2ccccc12"
measurement_name = "viability"
value_reported = 88.8

[[record]]
compound = "COc1cc(NS(=O)(=O)c2ccc(N)cc2)nc(OC)n1"
measurement_name = "viability"
value_reported = 100

[[record]]
compound = "CS(=O)(=O)N(CC(=O)N1CCN(c2cccc(Cl)c2)CC1)C1CCCCC1"
measurement_name = "viability"
value_reported = 79.6

[[record]]
compound = "Cc1c(NC(=O)c2nn(C)c(=O)c3ccccc23)c(=O)n(-c2ccccc2)n1C"
measurement_name = "viability"
value_reported = 97.9

[[record]]
compound = "COc1ccc(-c2nnc(SC(C)C(=O)Nc3nccs3)n2-c2ccccc2)cc1OC (centres undefined)"
measurement_name = "viability"
value_reported = 86.8


Lab note: each compound below needs its viability filled in.
1. CC(=O)c1c(O)cc(C)n(Nc2nc(C)cc(C)n2)c1=O
2. CCCNC(=O)NS(=O)(=O)c1ccc(Cl)cc1
3. Cc1cc(Nc2ccccc2F)n2ncnc2n1

1. 71.9
2. 97.5
3. 97.1
